- subject_of_test: murine IL-21R expressed on cells (murine, UniProt Q9JHX3 20-529)
- Sequence (Q9JHX3 20-529 limits assumed): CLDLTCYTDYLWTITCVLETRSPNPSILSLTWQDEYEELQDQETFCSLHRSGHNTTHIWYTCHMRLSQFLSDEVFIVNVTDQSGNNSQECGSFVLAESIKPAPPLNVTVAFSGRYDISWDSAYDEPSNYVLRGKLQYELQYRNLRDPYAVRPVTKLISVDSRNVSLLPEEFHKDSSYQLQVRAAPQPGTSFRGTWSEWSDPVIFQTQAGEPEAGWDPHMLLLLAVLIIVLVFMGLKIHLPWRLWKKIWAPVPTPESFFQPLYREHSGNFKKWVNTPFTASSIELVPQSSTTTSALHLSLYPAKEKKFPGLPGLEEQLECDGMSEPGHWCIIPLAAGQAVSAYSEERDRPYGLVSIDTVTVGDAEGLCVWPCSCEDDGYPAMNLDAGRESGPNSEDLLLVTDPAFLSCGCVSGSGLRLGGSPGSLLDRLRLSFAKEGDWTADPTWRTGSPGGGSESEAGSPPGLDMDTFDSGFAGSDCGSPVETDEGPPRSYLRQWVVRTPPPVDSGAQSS
- measurement_notes: cell-based or functional assay

{"columns": ["binder", "Murine IL-21R-BaF3 Proliferation IC50 / nM"],
 "data": [
  ["AbG (antibody, human IgG1, V domains shown, Full-length human IgG1 / human lambda, transient, conditioned medium; Framework limits derived; also called VHP/VL18) VH: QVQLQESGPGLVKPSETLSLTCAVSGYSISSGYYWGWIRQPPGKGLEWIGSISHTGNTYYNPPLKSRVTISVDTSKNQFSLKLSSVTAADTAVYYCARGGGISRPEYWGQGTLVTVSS VL: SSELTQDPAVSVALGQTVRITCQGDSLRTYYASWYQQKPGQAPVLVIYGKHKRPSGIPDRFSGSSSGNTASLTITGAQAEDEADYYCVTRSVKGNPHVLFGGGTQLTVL", 0.07],
  ["AbM (antibody, human IgG1, V domains shown, Full-length human IgG1 / human lambda, transient, conditioned medium; Framework limits derived; also called VH6/VL13) VH: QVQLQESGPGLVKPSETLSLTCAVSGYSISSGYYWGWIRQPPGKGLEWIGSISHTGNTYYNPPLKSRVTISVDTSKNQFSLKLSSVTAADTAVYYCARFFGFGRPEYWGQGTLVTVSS VL: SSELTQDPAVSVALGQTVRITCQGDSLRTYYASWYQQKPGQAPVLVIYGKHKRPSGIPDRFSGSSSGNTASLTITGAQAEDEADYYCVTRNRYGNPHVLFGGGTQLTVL", 0.125],
  ["AbU (antibody, human IgG1, V domains shown, Human IgG1 triple-mutant (L234A, L235A, G237A); Framework limits derived; also called VHP/VL25; VHPTM/VL25) VH: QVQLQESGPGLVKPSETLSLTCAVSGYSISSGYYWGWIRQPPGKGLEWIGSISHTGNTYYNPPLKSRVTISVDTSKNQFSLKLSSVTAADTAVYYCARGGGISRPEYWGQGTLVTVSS VL: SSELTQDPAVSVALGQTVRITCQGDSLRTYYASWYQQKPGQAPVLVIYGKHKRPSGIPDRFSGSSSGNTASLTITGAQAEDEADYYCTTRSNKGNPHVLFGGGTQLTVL", 0.184]
]}
